# assay-remarks: Drug level in epithelial lining fluid of healthy human at 500 mg, iv administered as 2-h infusion every 8 h after 6 hrs
# conditions: read-out: Drug uptake
readout-type: concentration at 6 h (ng/mL)
Reply with just the number (in ng/mL).

Qu. I have this molecule here, Nc1nc(/C(=N/O)C(=O)N[C@@H]2C(=O)N3C(C(=O)O)=C(/C=C4\CCN([C@@H]5CCNC5)C4=O)CS[C@H]23)ns1 [CEFTOBIPROLE] , and I need its recorded concentration at 6 h.
Ans. 4580

====

# assay-remarks: Drug level in plasma of healthy human at 500 mg, iv administered as 2-h infusion every 8 h after 4 hrs
readout-type: concentration at 4 h

Qu. # input compound: Nc1nc(/C(=N/O)C(=O)N[C@@H]2C(=O)N3C(C(=O)O)=C(/C=C4\CCN([C@@H]5CCNC5)C4=O)CS[C@H]23)ns1 ; wanted: its concentration at 4 h
Ans. 12800 ng/mL
